Data origin, for the record: PubChem BioAssay (NCI)

# Test system: SNB-75 CNS
# protocol.details: NCI tumour cell line growth inhibition, 48 h
measure: TGI (µM)

[
  {
    "chemical.string": "COC(=O)[C@@H]1CCCN1C(=O)[C@@H]1CCCN1C(=O)[C@H](Cc1ccccc1)NC(=S)Nc1cc(C(F)(F)F)cc(C(F)(F)F)c1",
    "unit.abbrev": "µM",
    "readout.value": 61
  },
  {
    "chemical.string": "Cc1ccc(Nc2nc3c(s2)C(=O)c2ccccc2C3=O)cc1",
    "unit.abbrev": "µM",
    "readout.value": 5.03
  },
  {
    "chemical.string": "Cc1nc(C(N)=S)sc1C(=O)CC(=O)C(=O)Nc1c(C(C)C)cccc1C(C)C",
    "unit.abbrev": "µM",
    "readout.value": 71.7
  }
]

* * *

# Tested on: HCT-15 colon
# protocol.details: NCI tumour cell line growth inhibition, 48 h
TGI by entry:

[
  {
    "compound": "CC1(C)C[C@H]2[C@H](O)C(CO)=C3C(=O)[C@@H](O)[C@]3(C)[C@H]2C1",
    "TGI": "> 100 µM"
  },
  {
    "compound": "COC(=O)C(C(=O)C(=O)Nc1ccc(Br)cc1)c1nc2ccc(Cl)cc2[nH]c1=O (stereo unspecified)",
    "TGI": "> 55.9 µM"
  },
  {
    "compound": "CCN(CC)c1ncnc2c1ncn2CCNC(CO)(CO)CO",
    "TGI": "> 100 µM"
  },
  {
    "compound": "O=C1C2=C(CCCC2)Nc2cccc3ncn1c23",
    "TGI": "> 100 µM"
  },
  {
    "compound": "CC1(C)CC2=C(SC3C=CC=CC3N2)C(=O)C1C(=O)C(N)=O (stereo unspecified)",
    "TGI": "> 100 µM"
  },
  {
    "compound": "Nc1ccc2nc3ccc(=O)cc-3n(-c3ccccc3)c2c1",
    "TGI": "> 100 µM"
  },
  {
    "compound": "CCN(CC)CCCN1C(=O)c2c(c(C)c3c(oc4ccc(O)cc43)c2C)C1=O",
    "TGI": "3.22 µM"
  },
  {
    "compound": "c1ccc(C(c2ccccc2)c2ccncc2)cc1",
    "TGI": "> 100 µM"
  },
  {
    "compound": "N#Cc1c(-c2ccccc2)n([O-])c2ccccc2[n+]1=O",
    "TGI": "48.3 µM"
  },
  {
    "compound": "Cc1nc(C(N)=S)sc1C(=O)CC(=O)C(=O)Nc1c(C(C)C)cccc1C(C)C",
    "TGI": "> 100 µM"
  },
  {
    "compound": "Fc1cc(-c2cc(-c3ccccc3)n[nH]2)c(Cl)cc1Cl",
    "TGI": "> 100 µM"
  },
  {
    "compound": "CCCCCOC(=O)C(=O)Nc1n[nH]nc1C(N)=O",
    "TGI": "> 100 µM"
  },
  {
    "compound": "Cc1ccc2nc3n(c2c1)C(c1c(F)cccc1F)SC3 (stereo unspecified)",
    "TGI": "> 100 µM"
  },
  {
    "compound": "CSc1nn2c(-c3ccc4ccccc4c3)ccnc2c1C#N",
    "TGI": "> 100 µM"
  },
  {
    "compound": "C=C(C)[C@@H]1C/C=C(\\COC(=O)[C@H](OC(C)=O)C(NC(=O)c2ccccc2)c2ccccc2)CC[C@H]2O[C@]2(C)CC/C=C(\\C)CC1 (stereo partly specified)",
    "TGI": "> 50 µM"
  },
  {
    "compound": "CN1CCN(C(=S)N(C(=O)c2cccs2)c2ccccc2)CC1",
    "TGI": "> 100 µM"
  },
  {
    "compound": "CC1CCC(C(C)C2C(O)CC3C4CC=C5CC(O)CCC5(C)C4CCC32C)NC1 (stereo unspecified)",
    "TGI": "> 100 µM"
  },
  {
    "compound": "CN(C)c1ccc(O)c2c1CC1CC3C(N(C)C)C(=O)C(C(N)=O)=C(O)C3(O)C(=O)C1=C2O (stereo unspecified)",
    "TGI": "> 100 µM"
  },
  {
    "compound": "CC1(C)CC(=O)C(C(=O)C(=O)NC2=C(Cl)C(=O)c3ccccc3C2=O)C(=O)C1",
    "TGI": "> 100 µM"
  },
  {
    "compound": "CCSc1nc(-c2ccc(OC)cc2)c(C#N)c(=O)n1C1OCC(OC(C)=O)C(OC(C)=O)C1OC(C)=O (stereo unspecified)",
    "TGI": "> 100 µM"
  },
  {
    "compound": "O=Cc1ccc(-c2nccc3c2[nH]c2ccccc23)o1",
    "TGI": "> 100 µM"
  }
]
